- measured.on: 4'-phosphopantetheinyl transferase ffp (Bacillus subtilis) (UniProt Q9F4F7)
- assay.details: qHTS Assay for Inhibitors of Bacillus subtilis Sfp phosphopantetheinyl transferase (PPTase);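 note: the enzyme is Sfp with the accession as filed and its product quenches rhodamine fluorescence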;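 for largest response in the series, negative = inhibition: 0% = enzyme reaction without inhibitor and -100% = no enzyme wells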
- run.parameters: Biochemical Sfp PPTase activity
About 11,000 (3.5%) of roughly 310,000 compounds were called active. Another 4% or so got no clear call; they are omitted. Many of the other results were omitted from the sample, so actives are more common in it than they were.
Quick reference: largest response in the series, negative = inhibition of the listed items.
measurement.kind: largest response in the series, negative = inhibition (%)

> print(dat)
                                    compound  data.value
 1  O=C(C1CC(=O)N(c2ccc(Br)cc2)C1)N1CCCC1 (stereo unspecified)        5.88
 2  COc1ccc(C(=O)NC(C)Cn2nc(C)cc2C)cc1OC1CCN(C(C)=O)CC1 (stereo unspecified)        12.4
 3  COC(=O)C1=CN(Cc2ccc(OC)cc2)C=C(C(=O)OC)C1c1ccc(O)c(OC)c1       -3.15
 4  COc1ccc2c3c1OC1CC(O)C=C[C@@]31CCN(C)C2 (stereo partly specified)          17
 5          CCOC(=O)c1sc(NC(=O)c2ccncc2)nc1C       -1.23
 6             COc1ccc(C=Nc2cccc3ncccc23)cc1       -8.45
 7     Cc1cc2[nH]ncc2cc1NC(=S)NC(=O)c1ccccc1        1.08
 8       COc1cc(CNC2CCCC2)c(Br)cc1OCc1ccccc1         9.9
 9  COc1ccccc1NC(=O)CCN1CCN(c2ccc(Cl)cc2)CC1        3.28
10  COc1ccc(CCN2C(=O)C3CC=C(C)CC3C2=O)cc1OC (stereo unspecified)        7.59
11  CC(CN1CCOCC1)OC(=O)c1ccc(C(C)(C)C)cc1 (stereo unspecified)      -0.906

---

Listing of entries alongside the reported largest response in the series, negative = inhibition.
- measured.on: 4'-phosphopantetheinyl transferase ffp (Bacillus subtilis)
- assay.details: qHTS Assay for Inhibitors of Bacillus subtilis Sfp phosphopantetheinyl transferase (PPTase);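 note: the enzyme is Sfp with the accession as filed and its product quenches rhodamine fluorescence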;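 for largest response in the series, negative = inhibition: 0% = enzyme reaction without inhibitor and -100% = no enzyme wells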
- run.parameters: Biochemical Sfp PPTase activity
- Text: Assay Submitter: Michael Burkart, University of California, San Diego Screening Center PI: Austin, C.P. Screening Center: NIH Chemical Genomics Center [NCGC] […] In search of small molecule Sfp-PPTase inhibitors, a fluorescence quenching assay was developed for detection of Bacillus subtilis Sfp-PPTase enzymatic activity in a miniaturized high-throughput format. […]
Among all 310,000 compounds or so, about 11,000 (3.5%) were called active. Not shown: some 4% with an inconclusive outcome. The entries come from a sample that favours actives as a whole.
measurement.kind: largest response in the series, negative = inhibition

> print(dat)
                               given.smiles         data.value
1       Cc1nc2ccc(NC(=S)N3CCC(C)CC3)cc2nc1C   15.4% (inactive)
2        O=S(=O)(c1ccc(-c2ccno2)s1)N1CCCCC1   11.8% (inactive)
3  CN1CCN(c2ccccc2NC(=O)COc2ccc(C3CCCCC3)cc2)CC1  -19.2% (inactive)
4   CC1CCN(c2ccc([N+](=O)[O-])cc2C(N)=O)CC1   9.05% (inactive)
5          CC1CCN(C(=S)NC(=O)c2ccccc2Br)CC1   14.1% (inactive)
6            Cc1cccc(Nc2nc(-c3ccccc3)cs2)n1  -27.9% (inactive)

---

Potency values, listed per item
- measured.on: 4'-phosphopantetheinyl transferase ffp (Bacillus subtilis) (UniProt Q9F4F7)
- assay.details: qHTS Assay for Inhibitors of Bacillus subtilis Sfp phosphopantetheinyl transferase (PPTase); note: potency is the fitted concentration of half-maximal effect;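 note: the enzyme is Sfp with the accession as filed and its product quenches rhodamine fluorescence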
- run.parameters: Biochemical Sfp PPTase activity
In all, about 310,000 compounds went through this assay and about 11,000 (3.5%) were called active. Inconclusive results (about 4%) are left out. The entries come from a sample that favours actives as a whole.
measurement.kind: Potency

> print(dat)
                                    compound  measurement.kind        data.value
 1                       Fc1ccc(Nc2nnns2)cc1           Potency  8.91 µM (active)
 2       Cc1cc(C)nc(NNC2=CC(=O)CC(C)(C)C2)n1           Potency  22.4 µM (active)
 3  COc1ccc(N2C(=O)C3C(C2=O)C(C(=O)c2ccccc2)N2CCCC32)cc1 (stereo not drawn)           Potency  50.1 µM (active)
 4     C(=N\Nc1ccc2ccccc2n1)/c1ccc2c(c1)OCO2           Potency  50.1 µM (active)
 5  O=[N+]([O-])c1cccc(/C([O-])=C(/C(=S)Nc2ccccc2F)[n+]2ccccc2)c1           Potency  17.8 µM (active)
 6  O=C(CN1CCN(S(=O)(=O)c2ccc(Cl)s2)CC1)NCc1ccc(Cl)cc1           Potency  56.2 µM (active)
 7  O=C(CN1CCN(S(=O)(=O)c2cc(Cl)ccc2Cl)CC1)c1ccc(O)c(O)c1           Potency  50.1 µM (active)
 8  CC(N)(C(=O)O)c1ccc(-c2nn[nH]n2)cc1 (stereo not drawn)           Potency  35.5 µM (active)
 9  Cc1ccc(C(=O)c2c(NC(=O)c3ccccc3)sc(C)c2C)cc1           Potency  28.2 µM (active)
10  N#C/C(=C/c1ccc(N2CCOCC2)o1)C(=O)N1CCOCC1           Potency  56.2 µM (active)
11  Cn1cc(-c2nc3cnc(N4CCNCC4)nc3n(CCc3ccccc3)c2=O)c2ccccc21           Potency  39.8 µM (active)
12  N#Cc1c(-c2ccccc2)cc(-c2ccccc2)nc1SCC(=O)O           Potency  35.5 µM (active)
13  O=C1CSC(=S)N1/N=C/c1ccc(O)c([N+](=O)[O-])c1           Potency  39.8 µM (active)
14  CN(C)c1cc(N)c2ccccc2n1 (tested in a mixture with another compound)           Potency  56.2 µM (active)
15  COc1cc(Cl)c(C)cc1NC(=O)CSc1nnc(-c2ccco2)n1CC(C)C           Potency  44.7 µM (active)
16         Cc1cc(C)nc(S/C=C/C(=O)c2ccccc2)n1           Potency    20 µM (active)
17  CCOC(=O)C1=NO[C@@]2(C=C(Br)C(=O)[C@H]3O[C@H]32)C1           Potency  31.6 µM (active)
18  CC1CCN(C(=S)c2ccc(-c3ccc(Cl)cc3Cl)o2)CC1           Potency  50.1 µM (active)
19  Cc1ccn(C(CC(=O)c2ccc(Br)cc2)C(=O)O)n1 (stereo not drawn)           Potency  22.4 µM (active)
20                COc1ccc2[nH]c(=S)cc(C)c2c1           Potency  39.8 µM (active)
21               CCOc1cc(C(=S)N2CCOCC2)ccc1O           Potency  14.1 µM (active)
22  C/C(CC(=O)NC(C)c1ccccc1)=N\NC(N)=S (stereo not drawn)           Potency  79.4 µM (active)
23  Brc1ccc(-c2csc(N/N=C/c3ccc4c(c3)OCO4)n2)cc1           Potency  2.82 µM (active)

---

- measured.on: 4'-phosphopantetheinyl transferase ffp (Bacillus subtilis) (UniProt Q9F4F7)
- assay.details: qHTS Assay for Inhibitors of Bacillus subtilis Sfp phosphopantetheinyl transferase (PPTase);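 note: the enzyme is Sfp with the accession as filed and its product quenches rhodamine fluorescence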;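 for largest response in the series, negative = inhibition: 0% = enzyme reaction without inhibitor and -100% = no enzyme wells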
- run.parameters: Biochemical Sfp PPTase activity
Out of some 310,000 compounds screened, about 11,000 (3.5%) were called active. Another 4% or so got no clear call; they are omitted. This is one part of a sample in which actives are shown more often than they occur.
# reported largest response in the series, negative = inhibition; entries follow
measurement.kind: largest response in the series, negative = inhibition (%)

> print(dat)
                                    molecule                               measured.on  data.value
 1  CCc1nn(CCCC(=O)Nc2ccc(C)c(C)c2)c(=O)c2cc3occc3n12  4'-phosphopantetheinyl transferase ffp (Bacillus subtilis) (UniProt Q9F4F7)        5.57
 2  O=C(NCC1CC1)C1(C(F)(F)F)C/C(=C\CCO)CCCO1 (stereo unspecified)  4'-phosphopantetheinyl transferase ffp (Bacillus subtilis) (UniProt Q9F4F7)        1.74
 3  COC(=O)C1=C(C)N(C)C(=O)NC1c1ccc([N+](=O)[O-])o1 (stereo unspecified)  4'-phosphopantetheinyl transferase ffp (Bacillus subtilis) (UniProt Q9F4F7)        23.4
 4  O=C(Cc1ccccc1)n1nc(-c2ccccc2)nc1NCc1ccco1  4'-phosphopantetheinyl transferase ffp (Bacillus subtilis) (UniProt Q9F4F7)      0.0328
 5            O=C(Nc1cc2ccccc2oc1=O)C1CCCCC1  4'-phosphopantetheinyl transferase ffp (Bacillus subtilis) (UniProt Q9F4F7)        26.6
 6  COc1ccc(N2CCN(C(=O)c3ccc(N4CCCCS4(=O)=O)cc3)CC2)cc1  4'-phosphopantetheinyl transferase ffp (Bacillus subtilis) (UniProt Q9F4F7)        1.49
 7              O=C(Nc1cccc(F)c1)NC1CCCCCCC1  4'-phosphopantetheinyl transferase ffp (Bacillus subtilis) (UniProt Q9F4F7)        8.11
 8  Cc1ccc(CNC(=O)Cn2cnc(S(=O)(=O)N3CCCCC3)c2)o1  4'-phosphopantetheinyl transferase ffp (Bacillus subtilis) (UniProt Q9F4F7)        14.3
 9         CC(C)(C)c1cc(C(=O)NCc2cccnc2)ccn1  4'-phosphopantetheinyl transferase ffp (Bacillus subtilis) (UniProt Q9F4F7)          -7
10  O=C(c1cn(-c2ccccc2)nc1-c1cc2ccccc2oc1=O)N1CCOCC1  4'-phosphopantetheinyl transferase ffp (Bacillus subtilis) (UniProt Q9F4F7)       -5.03
11  COC(=O)c1c(C)[nH]c(C)c1-c1ccc([N+](=O)[O-])cc1  4'-phosphopantetheinyl transferase ffp (Bacillus subtilis) (UniProt Q9F4F7)        9.93

Reference source for all entries: PubChem BioAssay AID1490
